Hey, just so you know, these numbers are from the kinase profiling compilation of Christmann-Franck et al. (2016).

# MEASURED_TARGET: CLK2 (human)
# METHOD: KINOMEscan competition binding
# CONDITION_SET: compound 10.0 µM
// boundary case: kinase still bound, per cent of control equal to 50% maps to NOT MET; strictly smaller maps to MET

Recorded results for 4 compounds are shown here.
INSERT INTO results (compound, discrete_label) VALUES
  ('N#Cc1cc(-c2ccnc(Nc3ccc(-n4cnc(-c5cccnc5)n4)cc3)n2)cc(N2CCOCC2)c1', 'MET'),
  ('CCOc1cc(N2CCC(O)CC2)ccc1Nc1ncc2c(n1)N(C)c1ccccc1C(=O)N2C', 'NOT MET'),
  ('CC(=O)c1c(C)c2cnc(Nc3ccc(N4CCNCC4)cn3)nc2n(C2CCCC2)c1=O', 'MET'),
  ('CCc1nc(-c2cccc(C)c2)c(-c2ccnc(NC(=O)c3ccccc3)c2)s1', 'NOT MET');

Continue with the next compound.
In plain terms, does CC1=C(C(=O)Nc2cc3cn[nH]c3cc2F)C(c2ccc(C(F)(F)F)cc2)CC(=O)N1 (stereo not given) come in under 50% for kinase still bound, per cent of control?
NOT MET
